measured-target: T1, recombinant purified FRα (ECL assay calibrator) (human, UniProt P15328 25-234)
T1 construct: Calibrator of the ECL sandwich assays; also called FRα calibrator; FRα standard
T1 sequence (P15328 25-234 limits assumed): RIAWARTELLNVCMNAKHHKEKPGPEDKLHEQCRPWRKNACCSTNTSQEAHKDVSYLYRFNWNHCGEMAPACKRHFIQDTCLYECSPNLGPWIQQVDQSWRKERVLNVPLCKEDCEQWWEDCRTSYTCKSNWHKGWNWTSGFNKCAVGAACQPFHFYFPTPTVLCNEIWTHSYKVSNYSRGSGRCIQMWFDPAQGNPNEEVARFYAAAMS
test-details: ECL sandwich, FRα calibrator; capture 5C12.H8; binder = detection Ab
Here the recorded Specific signal at 500 pg/mL is given for each entry.
measured-quantity: Specific signal at 500 pg/mL

binder="Monoclonal antibody 1D2.D8.G10 (antibody, mouse IgG1, V domains shown, Murine IgG1 kappa from hybridoma; also called 1D2.D8.G0; ATCC PTA-123098) VH: QSGTVLARPGASVKMSCKASGYSFTSNWMHWIKQRPGQGLEWIGAIYPGNSDTSYNQKFKGKAKLTAVTSASTAYMELSSLTNEDSAVYHCTRGDGSSFWYFDVWGAGTTVTVSS VL: QSPASLVVSLGQRATISCRASKSVSTSGYSYMYWYQQKSGQPPKLLIYLASNLESGVPARFSGGGSGTDFTLNIHPVEEEDAATYYCQQSRELPPTFGGGTKLEIK" value=73
binder="Monoclonal antibody 6A2.G7 (antibody, mouse IgG1, V domains shown, Murine IgG1 kappa from hybridoma; also called ATCC PTA-123093) VH: GADLVKPGASVKMSCKASGYTFSRYNMHWVKQTPGQGLEWIGTIYPGNGDTSYNEKFKGKATLTADKSSSIVYMQVSSLTSEASAVYYCARDYGSRYALDYWGQGTSVTVSS VL: SSLSASLGDRVTISCRASQDISNYLNWYQQKPDGTVKLLIYYTSRLHSGVPSRFSGSGSGTDYSLTISNLEQEDIATYFCQQGNTLPYTFGGGTKLEIK" value=100
binder="Monoclonal antibody 24H8.F3 (antibody, mouse IgG1, V domains shown, Murine IgG1 kappa from hybridoma; also called ATCC PTA-123097) VH: GPGLVAPSQSLSITCTVSGFSLTSYGVSWVRQPPGKGLEWLGVIWGDGSTNYHSTLISRLSISKDNSKSQVFLKLNSLQTDDTATYYCAKPHPAATGAMDYWGQGTSVTVSS VL: TTSSLSASLGDRVTISCRASQDISNHLNWYQQKPDGTIKLLIYYTSKLHSGVPSRFSGSGSGTDYSLTISNLEQEDIATYFCQQGNTLWTFGGGTKLEIK" value=70
